# Assay info: Cytotoxicity against human 518A2 cells after 96 hrs by SRB assay
# Type: functional, cell-based
# Run parameters: Homo sapiens, 518A2, 96 h; read-out: IC50
Property name: IC50 (nM)
API: value field is a number in nM; no unit string.

1. C=C1C[C@]2(C)[C@H]3CC[C@@H]4[C@H]5[C@H](C(=C)C)CC[C@]5(C=O)CC[C@@]4(C)[C@]3(C)CC[C@H]2C(C)(C)C1=O; 3800

IC50 for "C=C1C[C@]2(C)[C@H]3CC[C@@H]4[C@H]5[C@H](C(=C)C)CC[C@]5(C(=O)OC)CC[C@@]4(C)[C@]3(C)CC[C@H]2C(C)(C)C1=O" ?
4200

Another compound: "C=C1C[C@]2(C)[C@H]3CC[C@@H]4[C@H]5[C@H](C(=C)C)CC[C@]5(C(=O)O)CC[C@@]4(C)[C@]3(C)CC[C@H]2C(C)(C)C1=O"
500

How about this compound: "C=C(C)[C@@H]1CC[C@]2(C(=O)OC)CC[C@]3(C)[C@H](CC[C@@H]4[C@@]5(C)C[C@@H](CSCCO)C(=O)C(C)(C)[C@@H]5CC[C@]43C)[C@@H]12"
1500

Ok, now "C=C(C)[C@@H]1CC[C@]2(C(=O)OC)CC[C@]3(C)[C@H](CC[C@@H]4[C@@]5(C)C[C@@H](CS(=O)(=O)CCO)C(=O)C(C)(C)[C@@H]5CC[C@]43C)[C@@H]12"
2600
